Molecular target: Serine/threonine-protein kinase Sgk1 (Homo sapiens)
Sequence (O00141 whole entry): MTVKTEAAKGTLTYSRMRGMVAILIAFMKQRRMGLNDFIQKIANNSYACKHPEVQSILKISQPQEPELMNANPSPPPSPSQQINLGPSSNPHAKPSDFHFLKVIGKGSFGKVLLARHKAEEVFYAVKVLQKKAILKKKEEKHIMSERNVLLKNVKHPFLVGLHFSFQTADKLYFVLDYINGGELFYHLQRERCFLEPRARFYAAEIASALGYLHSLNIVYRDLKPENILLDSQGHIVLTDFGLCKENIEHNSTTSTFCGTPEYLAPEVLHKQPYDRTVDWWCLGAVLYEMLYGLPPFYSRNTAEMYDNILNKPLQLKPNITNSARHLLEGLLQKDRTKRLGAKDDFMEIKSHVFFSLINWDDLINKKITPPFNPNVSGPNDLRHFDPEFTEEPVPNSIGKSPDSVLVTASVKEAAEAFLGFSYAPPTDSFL
Assay: Inhibition of recombinant human SGK1 expressed in baculovirus expression system using 5-carboxyfluorescein -RPRAATF-NH2 as substrate preincubated for 30 mins followed by substrate addition in presence of 10 uM ATP and measured after 60 mins by microfluidics assay
MEASURED ATTRIBUTE: pIC50
// field semantics: pIC50 = negative decimal log of concentration (mol/L)

Cc1n[nH]c2nc(-c3ccc(NS(=O)(=O)c4cc(Cl)ccc4F)cc3)nc(OCC(CO)CO)c12 = 9.00
Cc1n[nH]c2nc(-c3ccc(NS(=O)(=O)c4cc(Cl)ccc4F)cc3)nc(OCC3CN(C(C)C)C3)c12 = 9.00
CCN1CCCC(Oc2nc(-c3ccc(NS(=O)(=O)c4cc(Cl)ccc4F)cc3)nc3[nH]nc(C)c23)C1 (stereo not drawn) = 8.22
Cc1n[nH]c2nc(-c3ccc(NS(=O)(=O)c4cc(Cl)ccc4F)cc3)nc(OC3CCNCC3(F)F)c12 (stereo not drawn) = 9.00
CCNC(=O)c1cc(-c2ccc(NS(=O)(=O)c3cccc(Cl)c3Cl)cc2)nc2[nH]ncc12 = 8.22
CNC(=O)c1cc(-c2ccc(NS(=O)(=O)c3cccc(Cl)c3Cl)cc2)nc2[nH]ncc12 = 8.40

Field: next compound
Q: Can you look up the measured pIC50 of O=C(NCc1nncs1)c1cc(-c2ccc(NS(=O)(=O)c3cccc(Cl)c3Cl)cc2)nc2[nH]ncc12 for me?
A: 6.96
